Cited source for all entries: patent US20230348401A1

Target: G6PD (Homo sapiens)
Sequence (P11413 28-515): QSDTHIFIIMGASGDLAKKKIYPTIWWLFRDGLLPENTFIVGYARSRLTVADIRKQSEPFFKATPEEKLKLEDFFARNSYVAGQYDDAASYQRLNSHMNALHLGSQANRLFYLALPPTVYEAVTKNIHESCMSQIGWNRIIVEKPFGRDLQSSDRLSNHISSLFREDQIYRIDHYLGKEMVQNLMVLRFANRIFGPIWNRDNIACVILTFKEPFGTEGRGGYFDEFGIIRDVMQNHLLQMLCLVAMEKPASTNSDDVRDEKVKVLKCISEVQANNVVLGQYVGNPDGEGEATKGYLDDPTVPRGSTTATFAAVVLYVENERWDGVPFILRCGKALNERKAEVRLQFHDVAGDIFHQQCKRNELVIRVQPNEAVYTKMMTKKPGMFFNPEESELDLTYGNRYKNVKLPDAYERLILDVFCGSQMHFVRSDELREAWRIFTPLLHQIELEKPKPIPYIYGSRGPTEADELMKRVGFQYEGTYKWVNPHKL
Assay: G6PD enzymatic activity by diaphorase-coupled assay
Value Type: IC50

IN: Entry Cc1cccc(Nc2ccc3c(n2)CCCC3=O)c1 [KG-0052] has what IC50?
OUT: > 1 mM

IN: IC50 lookup needed for CC1(C)[C@H]2CCC1(C)[C@@H](Oc1cc(C#N)cc(Nc3ncc4c(n3)CCCCC4=O)c1)C2 [Compound 0093] , thanks.
OUT: > 1 mM

IN: So what does the record say about IC50 for N#Cc1cc(Nc2ncc3c(n2)CCCCC3=O)cc(OC2CCCCC2)c1 [Compound 0063] ?
OUT: < 0.001 mM

IN: Could you share which IC50 value was measured for N#Cc1cc(Nc2ncc3c(n2)CCCCC3=O)cc(OC(c2ccccc2)c2ccccc2)c1 [Compound 0100] ?
OUT: 0.001 to 1 mM

IN: What value of IC50 has been recorded for this entry: Cc1cccc(Nc2ccc3c(c2)CCNC3=O)c1 [KG-0057]
OUT: > 1 mM
